B1: Zinc finger homeobox protein 3, residues 2244 to 2299; numbered along this chain, Q15911 (parent)
chain: SSRTRFTDYQLRVLQDFFDANAYPKDDEFEQLSNLLNLPTRVIVVWFQNARQKARK

Variants of: B1
Assay: abundance fitness (aPCA) (normalised: wild type 0, dead -1); higher = more abundant; growth selection in yeast, the domain comes from the species named
Conditions: Homo sapiens
Lab note: compare abundance fitness against -0.2. Equal or greater, write satisfied. Smaller, write not satisfied.

Reference set (4 entries):
L11N
satisfied
F17C
not satisfied
S33E
not satisfied
Q31I
satisfied

Kindly consider the entry below.
[Q] Hi, just wondering whether `D8V` shows abundance fitness of -0.2 or higher.
[A] not satisfied
